molecular target: Cytochrome P450 2C9 (Homo sapiens) (UniProt P11712); assay: enhancers of cytochrome P450 2C9 turnover – biochemical, luminescence, primary screen (AID 1024); conditions: recombinant CYP2C9, luciferin-H conversion, at 5 µM, stronger effect = higher value, factor 1 = untreated enzyme, 0 = blocked;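 note: 0 = sulfaphenazole-blocked wells and 1 = vehicle-only wells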
Sequence (P11712 whole entry, looked up): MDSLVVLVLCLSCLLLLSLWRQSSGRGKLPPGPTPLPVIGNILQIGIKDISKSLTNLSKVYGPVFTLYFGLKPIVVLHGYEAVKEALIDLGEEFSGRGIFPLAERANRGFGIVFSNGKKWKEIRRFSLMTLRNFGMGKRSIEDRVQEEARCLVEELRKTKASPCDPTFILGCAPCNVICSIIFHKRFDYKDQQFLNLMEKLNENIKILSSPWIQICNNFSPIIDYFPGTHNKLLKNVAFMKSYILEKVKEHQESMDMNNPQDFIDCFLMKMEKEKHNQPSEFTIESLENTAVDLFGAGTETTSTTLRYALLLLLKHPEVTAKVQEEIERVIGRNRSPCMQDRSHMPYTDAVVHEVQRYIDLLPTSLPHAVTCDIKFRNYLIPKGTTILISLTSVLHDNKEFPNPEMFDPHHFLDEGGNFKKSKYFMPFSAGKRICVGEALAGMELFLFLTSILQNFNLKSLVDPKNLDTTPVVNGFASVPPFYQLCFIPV
Hit rate of the full screen: of about 96,000 compounds, about 1,400 (1.5%) were called active. The sample as a whole holds a higher share of actives than the screen did.
Decision: activation factor >= 1 yields true (1), all other cases yield false (0).

>>> class("O=C(Cc1ccc(F)cc1)NC1CCCC1")
"true (1)"
>>> class("Cc1ccc(C(=O)OC2=CC(=O)CC(C)(C)C2)cc1")
"false (0)"
>>> class("O=C(CC1OC(=O)c2ccccc21)NC1CCCCC1 (stereo unspecified)")
"true (1)"
>>> class("CO/N=C/c1ccc(N2CCN(C(=O)c3cccc(Cl)c3)CC2)c([N+](=O)[O-])c1")
"false (0)"
>>> class("COc1ccc2oc(=O)c(C(=O)O)cc2c1")
"true (1)"
>>> class("O=C(c1ccc2c(c1)OCCO2)C1CCN(S(=O)(=O)c2cccc(F)c2)CC1")
"true (1)"
>>> class("COc1ccc(S(=O)(=O)N2CCC(C(=O)N3CCc4ccccc4C3)CC2)cc1OC")
"false (0)"
>>> class("O=C(CNC(=O)OCc1ccccc1)Oc1cc2oc(=O)cc(-c3ccccc3)c2cc1Cl")
"false (0)"
>>> class("COc1ccc(C2SCCN2S(=O)(=O)c2ccccc2)cc1OC (stereo unspecified)")
"true (1)"
>>> class("COc1ccccc1NC(=O)c1ccc(C)s1")
"true (1)"
>>> class("O=C(O)C1CCCN(S(=O)(=O)c2cccc3cccnc23)C1 (stereo unspecified)")
"true (1)"
>>> class("O=C(NC1CCCCC1)C1c2ccccc2C(=O)N1Cc1ccco1 (stereo unspecified)")
"false (0)"
>>> class("CN=C1S/C(=C\\c2ccc(Sc3ccc(Cl)cc3)o2)C(=O)N1C")
"false (0)"
>>> class("COc1cc(C2C(C(=O)OCCC#N)=C(C)NC3=C2S(=O)(=O)c2ccccc23)cc(OC)c1OC (stereo unspecified)")
"false (0)"
>>> class("Cc1ccc(NC(=O)C2CC(c3ccc(F)cc3)=NO2)cc1 (stereo unspecified)")
"false (0)"
>>> class("COc1ccccc1NC(=S)NC(=O)C(C)C")
"false (0)"
